System: RAW264.7
method.notes: Inhibition of LPS-induced NO production in mouse RAW264.7 cells after 24 hrs by Griess assay
Format: functional, cell-based
setup.conditions: RAW264.7, 24 h
observable: IC50

INSERT INTO measurements (entry_smiles, observable, result) VALUES
  ('COC(=O)/C(C)=C1\C(=O)[C@H](O)[C@]2(C)C3=C(C[C@@H]4[C@]5(OC(=O)C6=C5C[C@H]5[C@](O)(COC(=O)/C(C)=C/COC(=O)CCC(=O)OC6)[C@H]6C[C@H]6[C@]45C)[C@H]31)[C@H]1C[C@H]12', 'IC50', '14.8 µM');

From here, focus on the item given below.
// query Need IC50, item `CO[C@]12OC(=O)C(C)=C1C1=C3[C@](C)([C@@H]4C[C@@H]4[C@@]3(O)C[C@@H]3[C@]14OC(=O)C1=C4C[C@H]4[C@](O)(COC(=O)/C(C)=C/COC(=O)CCC(=O)OC1)[C@H]1C[C@H]1[C@]34C)[C@H]2O`
// result 43.2 µM
